- Tested on: Streptococcus pneumoniae ATCC6303
Quick reference: MIC of the listed items.
measured_metric: MIC

{"compound": "CO[C@H]1/C=C/O[C@@]2(C)Oc3c(C)c(O)c4c(c3/C2=N/O)C2=NC3(CCN(CC(C)C)CC3)NC2=C(NC(=O)/C(C)=C\\C=C\\[C@H](C)[C@H](O)[C@@H](C)[C@@H](O)[C@@H](C)[C@H](OC(C)=O)[C@@H]1C)C4=O [Example 4]", "experimental_result": "0.06 to 31 ng/mL"}
{"compound": "CCN1CCN(c2cc(O)c3nc4c5c6c7c(C)c(O)c5c(=O)c(c-4oc3c2)NC(=O)/C(C)=C\\C=C\\[C@H](C)[C@H](O)[C@@H](C)[C@@H](O)[C@@H](C)[C@H](OC(C)=O)[C@H](C)[C@@H](OC)/C=C/O[C@@](C)(O7)/C6=N\\O)CC1 [Example 8]", "experimental_result": "0.06 to 31 ng/mL"}
